Assay: Solubility test (DMSO precipitation method, Japanese Pharmacopoeia dissolution test second solution)
Type: physicochemical
Settings: aqueous buffer, kinetic from dmso stock, JP dissolution test second solution pH 6.8, room temperature, quantification range 5 to 100 μM
measuredParameter: solubility at 5 h (µM)

The compound CC1(O)CCc2c1cc(Cl)c(NC(=O)NCCc1ccc(F)cc1)c2Cl (stereo not shown) [Example 3(7)] showed solubility at 5 h equal to 86

The compound CC1(O)CCc2c1cc(Cl)c(NC(=O)NCCOc1ccc(F)cc1)c2Cl (stereo not shown) [Example 3(23)] showed solubility at 5 h equal to 83

The compound Cc1cc(CNC(=O)Nc2c(Cl)cc3c(c2Cl)CCC3(O)C(F)(F)F)no1 (stereo not shown) [Example 12(8)] showed solubility at 5 h equal to 94

The compound C[C@@H](NC(=O)Nc1c(Cl)cc2c(c1Cl)CC[C@]2(O)C(F)(F)F)c1ccc(F)cc1 [Example 21] showed solubility at 5 h equal to 72

----------
Test: Solubility test (DMSO precipitation method, Japanese Pharmacopoeia dissolution test second solution)
Format: physicochemical
Settings: aqueous buffer, kinetic from dmso stock, JP dissolution test second solution pH 6.8, room temperature, quantification range 5 to 100 μM
measuredParameter: solubility at 5 h (µM)

The compound CC1(C)CC(C)(O)c2cc(Cl)c(NC(=O)NCc3ccc(C(F)(F)F)cn3)c(Cl)c21 (stereo not shown) showed solubility at 5 h equal to 80

The compound CC1(O)c2cc(Cl)c(NC(=O)NCc3ccc(F)cc3)c(Cl)c2CC1(F)F (stereo not shown) showed solubility at 5 h equal to 87

The compound O=C(NCc1ccc(F)cc1)Nc1c(Cl)cc2c(c1Cl)CCC2(O)C(F)(F)F (stereo not shown) showed solubility at 5 h equal to 82

The compound O=C(NCC1CC1)Nc1c(Cl)cc2c(c1Cl)CCC2(O)C(F)(F)F (stereo not shown) showed solubility at 5 h equal to 78

----------
Test: Solubility test (DMSO precipitation method, Japanese Pharmacopoeia dissolution test second solution)
Type: physicochemical
Conditions: aqueous buffer, kinetic from dmso stock, JP dissolution test second solution pH 6.8, room temperature, quantification range 5 to 100 μM
measuredParameter: solubility at 5 h (µM)

The molecule O=C(NCc1ccc(C(F)(F)F)cn1)Nc1c(Cl)cc2c(c1Cl)CCC2(O)C(F)(F)F (stereo not shown) showed solubility at 5 h equal to 87

The molecule CC1(O)CCc2c1cc(Cl)c(NC(=O)NCCC1CCCC1)c2Cl (stereo not shown) showed solubility at 5 h equal to 92

The molecule CC1(CNC(=O)Nc2c(Cl)cc3c(c2Cl)CCC3(O)C(F)(F)F)CCOCC1 (stereo not shown) showed solubility at 5 h equal to 85

The molecule CC1(O)CCc2c1cc(Cl)c(NC(=O)OCc1ccc(F)cc1)c2Cl (stereo not shown) showed solubility at 5 h equal to 76

----------
Molecular target: Human KCNQ2/3 channel (Homo sapiens, UniProt O43525+O43526)
Experiment: Opening action with respect to KCNQ2/3 channel by depolarization stimulation (thallium influx, FLIPR)
Conditions: concentration giving 50% of the maximum reaction of retigabine (10 μM); human KCNQ2/3 expressing CHO-DHFR- cells; read-out: KCNQ2/3 ECrtg50
measuredParameter: EC50 (µM)

Below, 8 molecules whose answers are already recorded.
The molecule C[C@@H](NC(=O)Nc1c(Cl)cc2c(c1Cl)CC[C@@]2(O)C(F)(F)F)c1ccc(F)cc1 showed EC50 equal to 0.001

The molecule CC1(O)CCc2c1cc(Cl)c(NC(=O)NCC1CC3CCC1C3)c2Cl (centres unmarked) showed EC50 equal to 0.01

The molecule CC1(O)CCc2c1cc(Cl)c(NC(=O)OCc1ccc(F)cc1)c2Cl (centres unmarked) showed EC50 equal to 0.05

The molecule CC1(O)CCc2c1cc(Cl)c(NC(=O)NCc1ccc(OC(F)(F)F)cc1F)c2Cl (centres unmarked) showed EC50 equal to 0.03

The molecule O=C(NCc1ccc(-c2ccc(Cl)cc2)o1)Nc1c(Cl)cc2c(c1Cl)CCC2(O)C(F)(F)F (centres unmarked) showed EC50 equal to 0.01

The molecule CC1(O)CCc2c1cc(Cl)c(NC(=O)NCCC1CCCC1)c2Cl (centres unmarked) showed EC50 equal to 0.02

The molecule CC1(O)c2cc(Cl)c(NC(=O)NCc3ccc(F)cc3)c(Cl)c2CC1(F)F (centres unmarked) showed EC50 equal to 0.2

The molecule CC1(O)CCc2c1cc(Cl)c(NC(=O)NCCc1ccc(F)cc1)c2Cl (centres unmarked) showed EC50 equal to 0.5

I: CC1(CNC(=O)Nc2c(Cl)cc3c(c2Cl)CCC3(O)C(F)(F)F)CC1 (centres unmarked)
II: CC1(O)CCc2c1cc(Cl)c(NC(=O)NC(C)(C)c1ccc(F)cc1)c2Cl (centres unmarked)
III: CC1(O)CCc2c1cc(Cl)c(NC(=O)NCCOc1ccc(F)cc1)c2Cl (centres unmarked)
List by increasing EC50. Write the labels, ordered according to the request.
I, II, III

I: O=C(NCc1cc2ccccc2[nH]1)Nc1c(Cl)cc2c(c1Cl)CCC2(O)C(F)(F)F (centres unmarked)
II: CC1(C)CC(C)(O)c2cc(Cl)c(NC(=O)NCc3ccc(C(F)(F)F)cn3)c(Cl)c21 (centres unmarked)
III: O=C(NCc1ccc(C(F)(F)F)cn1)Nc1c(Cl)cc2c(c1Cl)CCC2(O)C(F)(F)F (centres unmarked)
IV: Cc1cc(CNC(=O)Nc2c(Cl)cc3c(c2Cl)CCC3(O)C(F)(F)F)no1 (centres unmarked)
List by increasing EC50. Write the labels, ordered according to the request.
III, I, IV, II
(III: 0.002 µM, I: 0.02 µM, IV: 0.2 µM, II: 0.3 µM)

I: CC1(O)CCc2c1cc(Cl)c(NC(=O)NCc1ccc(C(F)(F)F)cn1)c2Cl (single isomer, unassigned)
II: O=C(NCc1ccc(F)cc1)Nc1c(Cl)cc2c(c1Cl)CCC2(O)C(F)(F)F (centres unmarked)
I'm curious, which of these has a smaller EC50 number: I or II ? Write the label of whichever entry you select.
II
